Assay target: human dUTPase (Homo sapiens (Human), UniProt P33316)
Sequence (P33316 94-252): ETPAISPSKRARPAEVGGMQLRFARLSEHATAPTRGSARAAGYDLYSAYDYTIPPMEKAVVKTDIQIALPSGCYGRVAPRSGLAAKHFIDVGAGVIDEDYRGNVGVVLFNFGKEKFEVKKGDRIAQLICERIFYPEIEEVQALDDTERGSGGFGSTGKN
Protocol summary: Human dUTPase inhibitory effect: production of [5-3H]dUMP from [5-3H]dUTP, measured by HPLC with flow scintillation
Experimental setup: [5-3H]dUMP production from [5-3H]dUTP, 37° C., 15 minutes
pIC50: −log10 of the molar value.
Observable: pIC50

Guide cases for pIC50, answers given:
CC(C)(CCCOCn1ccc(=O)[nH]c1=O)NS(=O)(=O)c1ccc(Cl)c(Cl)c1 | 5.69
O=c1ccn(COCCCS(=O)(=O)NCc2cccc(OC3CCCCC3)c2)c(=O)[nH]1 | 5.70

(I) CC(NS(=O)(=O)CCCOCn1ccc(=O)[nH]c1=O)c1cccc(OC2CCCC2)c1 (stereo not shown)
(II) CN(C)c1cccc2c(S(=O)(=O)NC(C)(C)CCCOCn3ccc(=O)[nH]c3=O)cccc12
Identify the item whose pIC50 is the smaller number: I or II When you have decided, please share the label of that item.
II
(II: 5.02, I: 6.85)

---

Assay target: human dUTPase (Homo sapiens (Human), UniProt P33316)
Protocol summary: Human dUTPase inhibitory effect: production of [5-3H]dUMP from [5-3H]dUTP, measured by HPLC with flow scintillation
Format: biochemical
Experimental setup: [5-3H]dUMP production from [5-3H]dUTP, 37° C., 15 minutes
Observable: IC50 (nM)

C/C=C\c1cccc(S(=O)(=O)NC(C)(C)CCCOCn2ccc(=O)[nH]c2=O)c1 [Example 162] | 3960

(I) CC(C)(CCCOCn1ccc(=O)[nH]c1=O)NS(=O)(=O)c1cc(Cl)c(Cl)s1 [Example 138]
(II) C[C@@H](NS(=O)(=O)CCCOCn1ccc(=O)[nH]c1=O)c1ccc(F)c(OCC(F)(F)F)c1 [Example 54]
(III) C[C@@H](NS(=O)(=O)CCCOCn1ccc(=O)[nH]c1=O)c1cccc(OC2CC2)c1 [Example 13]
(IV) C[C@@H](NS(=O)(=O)CCCOCn1ccc(=O)[nH]c1=O)c1cccc(F)c1 [Example 87]
(V) CC[C@@H](NS(=O)(=O)CCCOCn1ccc(=O)[nH]c1=O)c1ccc(F)c(OCC2CC2)c1 [Example 22]
List by increasing IC50. Use the labels to give the ranking in the order requested.
V, II, III, I, IV

(P) C[C@@H](NS(=O)(=O)CCCOCn1ccc(=O)[nH]c1=O)c1cccc(OCC(F)(F)F)c1 [Example 53]
(Q) O=c1ccn(COCCCS(=O)(=O)NCc2cccc(OCC3CC3)c2)c(=O)[nH]1 [Example 1]
Hi! Which is lower in terms of IC50, the first one P or the second one Q ? Label of pick, please.
P

---

Assay target: human dUTPase (Homo sapiens (Human), UniProt P33316)
Protocol summary: Human dUTPase inhibitory effect: production of [5-3H]dUMP from [5-3H]dUTP, measured by HPLC with flow scintillation
Format: biochemical
Experimental setup: [5-3H]dUMP production from [5-3H]dUTP, 37° C., 15 minutes
Observable: IC50 (nM)

(P) CN(CC1(c2ccccc2)CC1)S(=O)(=O)CCCn1ccc(=O)[nH]c1=O
(Q) C[C@@H](NS(=O)(=O)CCCOCn1ccc(=O)[nH]c1=O)c1cccc(OCC(F)F)c1
(R) COc1cccc(S(=O)(=O)NC(C)(C)c2ccc(Cn3ccc(=O)[nH]c3=O)cc2)c1
(S) O=c1ccn(COCCCS(=O)(=O)NCc2cccc(OC3CCCC3)c2)c(=O)[nH]1
Arrange the above in rising order of IC50. Quick reminder: the answer is the labels in the order asked.
Q, S, R, P
(Q: 140 nM, S: 270 nM, R: 2570 nM, P: 6560 nM)

---

Assay target: UniProtKB P33316
Protocol summary: Human dUTPase inhibitory effect: production of [5-3H]dUMP from [5-3H]dUTP, measured by HPLC with flow scintillation
Experimental setup: [5-3H]dUMP production from [5-3H]dUTP, 37° C., 15 minutes
pIC50: −log10 of the molar value.
Observable: pIC50

Completed entries (count: 3):
O=c1ccn(COCCCS(=O)(=O)NC(c2ccc(F)cc2)c2ccc(F)cc2)c(=O)[nH]1 | 5.59
Cc1ccccc1S(=O)(=O)NC(C)(C)CCCOCn1ccc(=O)[nH]c1=O | 5.24
C[C@@H](NS(=O)(=O)CCCOCn1ccc(=O)[nH]c1=O)c1cccc(OCC(C)(C)C)c1 | 6.29

(P) CCC(CC)(NS(=O)(=O)CCCOCn1ccc(=O)[nH]c1=O)c1cccc(OCC2CC2)c1
(Q) O=c1ccn(CCCS(=O)(=O)N2CCC[C@@H]2C(O)(c2ccc(F)cc2)c2ccc(F)cc2)c(=O)[nH]1
(R) CCC[C@@H](C)Oc1cccc([C@@H](C)NS(=O)(=O)CCCOCn2ccc(=O)[nH]c2=O)c1
# sort list by recorded pIC50, greatest to least Please list the labels in the order you were asked to rank them.
P, Q, R
(P: 6.68, Q: 6.40, R: 6.03)

(A) CC(C)(CCCOCn1ccc(=O)[nH]c1=O)NS(=O)(=O)c1cc(Br)c(Br)s1
(B) CC(C)[C@H](NS(=O)(=O)CCCOCn1ccc(=O)[nH]c1=O)c1ccc(F)c(OCC2CC2)c1
(C) CN(C(CCn1ccc(=O)[nH]c1=O)C(=O)NO)S(=O)(=O)c1ccc(Oc2ccccc2)cc1 (stereo not shown) [Comparative Example 2, reference compound]
(D) O=c1ccn(COCCCS(=O)(=O)NC2(c3cccc(OCC4CC4)c3)CCCC2)c(=O)[nH]1
(E) CC[C@@H](NS(=O)(=O)c1ccc(Cn2ccc(=O)[nH]c2=O)cc1)c1ccc(F)c(OCC2CC2)c1
Sort by pIC50, descending. Reply: labels, ordered per the request.
D, E, B, A, C
(D: 6.55, E: 6.24, B: 5.81, A: 5.12, C: 4.01)

(I) CC(C)(CCCOCn1ccc(=O)[nH]c1=O)NS(=O)(=O)c1cc(Cl)cc(Cl)c1
(II) O=c1ccn(COCCCS(=O)(=O)N[C@@H](c2ccc(F)c(OCC3CC3)c2)c2cccs2)c(=O)[nH]1
Exercise: compare I and II ; which one has the greater pIC50? Select an item and report its label.
II
(II: 7.52, I: 5.30)

---

Assay target: human dUTPase (Homo sapiens (Human), UniProt P33316)
Protocol summary: Human dUTPase inhibitory effect: production of [5-3H]dUMP from [5-3H]dUTP, measured by HPLC with flow scintillation
Experimental setup: [5-3H]dUMP production from [5-3H]dUTP, 37° C., 15 minutes
Observable: IC50 (µM)

CC(NS(=O)(=O)CCCOCn1ccc(=O)[nH]c1=O)c1ccc(F)c(OCC2CC2)c1 (centres unmarked) | 0.15
O=c1ccn(COCCCS(=O)(=O)NC(c2cccc(OCC3CC3)c2)C2CC2)c(=O)[nH]1 (centres unmarked) | 0.36
O=c1ccn(COCCCS(=O)(=O)NC(c2ccccc2)c2cccc(OCC3CC3)c2)c(=O)[nH]1 (centres unmarked) | 0.16
CC[C@@](O)(CNS(=O)(=O)CCCn1ccc(=O)[nH]c1=O)c1ccc(F)c(OC2CCCC2)c1 | 1.81
CC(C)(CCCOCn1ccc(=O)[nH]c1=O)NS(=O)(=O)c1cccc(OCC2CC2)c1 | 0.26
C#CCOc1cccc([C@@H](C)NS(=O)(=O)CCCOCn2ccc(=O)[nH]c2=O)c1 | 1.18
CC(C)[C@@H](NS(=O)(=O)CCCOCn1ccc(=O)[nH]c1=O)c1ccc(F)c(OCC2CC2)c1 | 0.04
C[C@@H](NS(=O)(=O)CCCn1ccc(=O)[nH]c1=O)c1cccc(OC2CCCC2)c1 | 1.46
O=c1ccn(COCCCS(=O)(=O)NC(c2ccccc2)c2cccc(F)c2)c(=O)[nH]1 (centres unmarked) | 4.63

(P) C[C@@H](NS(=O)(=O)CCCOCn1ccc(=O)[nH]c1=O)c1cccc(OCCC2CC2)c1
(Q) O=c1ccn(Cc2ccc(S(=O)(=O)NC(c3ccccc3)c3ccccc3)cc2)c(=O)[nH]1
Field: lower IC50 | Options: P / Q // respond with label for picked entry
P

---

Assay target: human dUTPase (Homo sapiens (Human), UniProt P33316)
Protocol summary: Human dUTPase inhibitory effect: production of [5-3H]dUMP from [5-3H]dUTP, measured by HPLC with flow scintillation
Experimental setup: [5-3H]dUMP production from [5-3H]dUTP, 37° C., 15 minutes
Observable: IC50 (nM)

C[C@@H](NS(=O)(=O)CCCOCn1ccc(=O)[nH]c1=O)c1cccc(OC(F)(F)C(F)(F)F)c1 | 410
O=c1ccn(CC2CCN(S(=O)(=O)NCc3cccc(OCC4CC4)c3)CC2)c(=O)[nH]1 | 270
O=c1ccn(COCCCC2(NS(=O)(=O)c3ccccc3)CC2)c(=O)[nH]1 | 6020
O=c1ccn(COCCCS(=O)(=O)NCc2ccc(F)c(OC3CCCC3)c2)c(=O)[nH]1 | 160

(A) CC[C@@H](NS(=O)(=O)CCCOCn1ccc(=O)[nH]c1=O)c1cccc(OCC2CC2)c1
(B) C[C@@H](NS(=O)(=O)CCCOCn1ccc(=O)[nH]c1=O)c1ccc(F)c(OCC2CC2)c1
Quick check, higher IC50 between A and B ? Indicate your choice by writing its label.
B

(1) O=c1ccn(CCCS(=O)(=O)NC(c2ccccc2)c2cccc(OCC3CC3)c2)c(=O)[nH]1 (stereo not drawn)
(2) O=c1ccn(COCCOC(c2ccccc2)(c2ccccc2)c2ccccc2)c(=O)[nH]1 [Comparative Example 1, reference compound]
Endpoint returns whichever of 1 and 2 has the numerically higher IC50. Respond using the label that marks the chosen record.
2
(2: 185000 nM, 1: 2230 nM)

(I) O=c1ccn(CCCS(=O)(=O)N2CCC[C@@H]2C(O)(c2cccc(F)c2)c2cccc(F)c2)c(=O)[nH]1
(II) C[C@@H](NS(=O)(=O)CCCOCn1ccc(=O)[nH]c1=O)c1cccc(O[C@H]2CCOC2)c1
(III) O=c1ccn(COCCCS(=O)(=O)NCc2cccc(SCC3CC3)c2)c(=O)[nH]1
Rank entries according to their IC50, from the largest number down. I'd appreciate it if you listed the labels in the requested order.
III, II, I

(1) CC(C)(NS(=O)(=O)CCCOCn1ccc(=O)[nH]c1=O)c1ccc(F)c(OCC2CC2)c1
(2) C=CCOc1cccc([C@@H](C)NS(=O)(=O)CCCOCn2ccc(=O)[nH]c2=O)c1
(3) O=c1ccn(COCCCS(=O)(=O)NC(c2ccc(F)cc2)c2ccc(F)c(OCC3CC3)c2)c(=O)[nH]1 (stereo not drawn)
(4) CC(C)(CCCOCn1ccc(=O)[nH]c1=O)NS(=O)(=O)c1ccccc1Br
Given 4 compounds, produce a descending ranking by IC50. # respond with the labels, arranged in the requested order
4, 2, 1, 3
(4: 8940 nM, 2: 740 nM, 1: 360 nM, 3: 240 nM)
